Numbers sourced from paper PMC3961306.

# Target System: panel of more than 300 wild-type and mutant kinases (313 kinase panel) (Homo sapiens)
# Sequence (Q9UKE5 whole entry, change not shown): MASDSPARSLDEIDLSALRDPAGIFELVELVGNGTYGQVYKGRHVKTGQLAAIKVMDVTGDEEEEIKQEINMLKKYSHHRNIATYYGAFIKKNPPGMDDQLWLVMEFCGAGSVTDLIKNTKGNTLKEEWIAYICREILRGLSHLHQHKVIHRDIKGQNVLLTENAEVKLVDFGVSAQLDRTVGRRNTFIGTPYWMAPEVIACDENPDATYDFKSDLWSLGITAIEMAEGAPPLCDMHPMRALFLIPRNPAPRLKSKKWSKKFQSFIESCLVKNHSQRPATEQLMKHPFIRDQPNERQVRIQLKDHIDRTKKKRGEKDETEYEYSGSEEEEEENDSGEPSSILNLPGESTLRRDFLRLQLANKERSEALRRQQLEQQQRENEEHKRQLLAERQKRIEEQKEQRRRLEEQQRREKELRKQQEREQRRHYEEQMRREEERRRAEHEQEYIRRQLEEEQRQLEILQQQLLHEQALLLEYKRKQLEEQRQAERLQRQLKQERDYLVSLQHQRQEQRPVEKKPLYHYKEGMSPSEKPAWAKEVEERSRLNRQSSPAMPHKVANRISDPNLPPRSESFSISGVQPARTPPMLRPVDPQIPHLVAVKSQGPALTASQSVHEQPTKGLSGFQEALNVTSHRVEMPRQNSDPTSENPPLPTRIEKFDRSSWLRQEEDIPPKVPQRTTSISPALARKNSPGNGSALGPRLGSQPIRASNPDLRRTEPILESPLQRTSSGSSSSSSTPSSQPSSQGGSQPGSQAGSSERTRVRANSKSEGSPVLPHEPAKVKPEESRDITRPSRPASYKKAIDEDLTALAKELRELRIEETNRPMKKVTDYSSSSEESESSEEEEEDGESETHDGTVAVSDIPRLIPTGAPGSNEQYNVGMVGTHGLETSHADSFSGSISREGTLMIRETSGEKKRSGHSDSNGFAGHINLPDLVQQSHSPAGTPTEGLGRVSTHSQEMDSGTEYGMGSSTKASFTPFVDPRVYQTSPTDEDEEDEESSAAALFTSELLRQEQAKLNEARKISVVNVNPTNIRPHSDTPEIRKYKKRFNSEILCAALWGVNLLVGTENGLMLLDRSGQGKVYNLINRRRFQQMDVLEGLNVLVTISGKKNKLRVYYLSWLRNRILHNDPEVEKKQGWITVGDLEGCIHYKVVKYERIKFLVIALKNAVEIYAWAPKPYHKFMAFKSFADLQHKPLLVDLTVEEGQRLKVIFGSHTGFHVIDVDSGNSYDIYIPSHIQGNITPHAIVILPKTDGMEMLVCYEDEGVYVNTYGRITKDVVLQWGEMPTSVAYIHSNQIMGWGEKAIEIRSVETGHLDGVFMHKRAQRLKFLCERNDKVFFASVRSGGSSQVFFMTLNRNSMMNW
# Method Notes: Kinase profiling in a biochemical assay panel (mobility shift assays and ELISA), %-inhibition at 1 μM; selectivity entropy
# Run Parameters: kinase TNIK; 1 μM
Task for the reader: assign each of the following compounds its reported %-inhibition of TNIK.
The answer consists of two parts: a number and, after it, its unit.

[Q] // %-inhibition of TNIK lookup, key: N#CC[C@H](C1CCCC1)n1cc(-c2ncnc3[nH]ccc23)cn1 [ruxolitinib]
[A] 0.811%

[Q] Follow-up item: CO[C@H]1C[C@@H]2CC[C@@H](C)[C@@](O)(O2)C(=O)C(=O)N2CCCC[C@H]2C(=O)O[C@H]([C@H](C)C[C@@H]2CC[C@@H](OC(=O)C(C)(CO)CO)[C@H](OC)C2)CC(=O)[C@H](C)/C=C(\C)[C@@H](O)[C@@H](OC)C(=O)[C@H](C)C[C@H](C)/C=C/C=C/C=C/1C [temsirolimus]
[A] -2.54%

[Q] Now consider Cc1ccc(Nc2nccc(N(C)c3ccc4c(C)n(C)nc4c3)n2)cc1S(N)(=O)=O [pazopanib] and answer again.
[A] 83%

[Q] Would you mind doing CS(=O)(=O)CCNCc1ccc(-c2ccc3ncnc(Nc4ccc(OCc5cccc(F)c5)c(Cl)c4)c3c2)o1 [lapatinib] as well?
[A] 25%

[Q] How about this compound: COc1cc2c(Nc3ccc(Br)cc3F)ncnc2cc1OCC1CCN(C)CC1 [vandetanib]
[A] 66%

[Q] Thanks! And C[C@@H](Oc1cc(-c2cnn(C3CCNCC3)c2)cnc1N)c1c(Cl)ccc(F)c1Cl [crizotinib] ?
[A] 11%
